Let's look at some binders and their measured pIC50.
target: T1, recombinant human IL-17A (human, UniProt Q16552 24-155); assay: competition ELISA, IL-17A binding to coated IL-17RA-Fc
T1 construct: Bought recombinant protein (Peprotech AF-200-17); also called Peprotech AF-200-17
T1 sequence (Q16552 24-155): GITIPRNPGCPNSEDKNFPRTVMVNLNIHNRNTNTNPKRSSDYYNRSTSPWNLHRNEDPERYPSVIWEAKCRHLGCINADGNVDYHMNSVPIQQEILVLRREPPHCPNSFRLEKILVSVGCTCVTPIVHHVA
FYI, pIC50 means -log10 of a concentration in mol per litre.

Solved entries (count: 2):
Provide measured pIC50 value, entry: Family 4 (clone 4.1) (VHH, Human single VH domain) VHH: QVQLVESGGGLVQPGGSLRLSCAASGFTFSSYWMNWVRQAPGKGLEWVATIKQDGSEKYYVDSVKGRFTISRDNATNSLFLQMNSLRAEDTAVYYCARGDTIFDGAFDIWGQGTMVTVSS
5.50

Indicate the recorded pIC50 value for this binder: Family 2 (clone 2.1) (VHH, Human single VH domain; also called VH 2.1.1) VHH: QVQLVESGGGLVQPGGSLRLSCAASGFTFSSYGMGWVRQAPGKGLEWVAKIKQDGSEKDYVDSVKGRFTISRDNAKKSLFLQMNSLRAEDTAVYYCARESIFGIPEDWGQGTLVTVSS
7.49

New cases:
Give pIC50 for Family 5 (clone 5.1) (VHH, Human single VH domain) VHH: EVQLVESGGGLVQPGGSLRLSCAASGFTFSSYWMSWVRQAPGKGLEWVANIKQDGSEKYYVDSVKGRFTISRDNAKNSLYLQMNSLRAEDTAVYYCAHGQWPFFDYWGQGTMVTVSS
6.47

Output pIC50 of VH 1.1.1 (clone 1.1 expressed from phagemid vector: with linker residues and His tag) (VHH, Human single VH domain; also called Family 1 (clone 1.1)) VHH: EVQLVESGGGLVQPGGSLRLSCAASGFTFSSYSMYWVRQAPGKGLEWVANIKQDGSEKYYVDSVKGRFTISRDNAKNSLFLQMNSLRAEDTAVYYCAKGEILPLHFDYWGQGTLVTVSS
7.28
